# Target Or Test System: Tag-free human IL6 recombinant protein (GenScript, Cat. No. Z03034) (human, UniProt P05231 30-212)
# Sequence (P05231 30-212, one chain of several): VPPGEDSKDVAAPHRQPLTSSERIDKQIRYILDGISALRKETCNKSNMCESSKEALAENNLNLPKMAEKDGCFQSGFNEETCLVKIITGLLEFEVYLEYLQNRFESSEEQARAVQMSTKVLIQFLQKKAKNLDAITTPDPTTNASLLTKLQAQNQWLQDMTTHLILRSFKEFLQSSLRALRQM
# Assay Protocol: SPR (Biacore)
Measured Metric: pKd
FYI, pKd means -log10 of a concentration in mol per litre.

The recorded pKd for 29D6B5 (antibody, V domains shown) VH: QVQLQQSGAELAEPGASVKMSCKASGYNFNNYWMHWVKQGPGQGLEWIGYIDPRTASIYYNQKFKDKATLTADKSSSTAYMQLSSLTSEDSAVYYCARILYGKYDVWGAGTTVIVSS VL: DVVLTQTPLSLPVSLGNQASISCRSSQSLVDSNGNTYLHWYLQKPGQSPKVLIHKVSNRFSGVPDRFSGSGSGTDFTLKISRVEAEDLGVYFCSQSTHVPPTFGGGTKLEIK is 8.71
